Tested on: P. falciparum NF54
Experiment: In vitro microplate assay against P. falciparum NF54 (3H-hypoxanthine incorporation)
Format: cell-based, Plasmodium falciparum
Settings: Plasmodium falciparum, NF54, chloroquine-sensitive strain NF54, erythrocytic stages; read-out: P.f.NF54 IC50
Reported Endpoint: pIC50
Give bare numbers, as −log10 of the molar value.

Please give pIC50 for each item listed below.
1. O=C(Nc1ccc(N2CCNCC2)cc1)c1cccc(F)c1Oc1ccc(F)cc1
2. O=C(c1cccc(C(F)(F)F)c1Oc1ccc(F)cc1)N1CCNCC1
3. O=C(Nc1cccc(N2CCNCC2)c1)c1cccc(C(F)(F)F)c1Oc1ccc(F)cc1
4. CC(=O)Nc1ccc(Oc2c(C(=O)Nc3ccccc3N3CCNCC3)cccc2C(F)(F)F)cc1
5. O=C(Nc1ccc(N2CCNCC2)cc1)c1cccc(C(F)(F)F)c1
6. CN1CCN(c2ccccc2NC(=O)c2cccc(C(F)(F)F)c2Oc2ccc(F)cc2)CC1
7. CN1CCN(C(=O)c2cccc(C(F)(F)F)c2Oc2ccc(F)cc2)CC1
8. O=C(Nc1ccc(N2CCOCC2)cc1)c1cccc(C(F)(F)F)c1Oc1ccc(F)cc1

Result block:
1. 5.33
2. 4.63
3. 5.26
4. 4.95
5. 5.59
6. 4.85
7. 4.26
8. 5.17

* * *

Experiment: Parallel artificial membrane permeability assay (PAMPA)
Conditions: PAMPA, pH 7.4, Pe, PBS pH 7.4, 200 µM, 5 h, room temperature
Would you mind telling me the reported Papp at 5 h, 200 µM of each entry?
Answers are plain numbers, in ×10⁻⁶ cm/s.

{"Smiles Repr": "CN1CCN(C(=O)c2cccc(C(F)(F)F)c2Oc2ccc(F)cc2)CC1", "Unit Info": "×10⁻⁶ cm/s", "Numeric Value": 8.5}
{"Smiles Repr": "O=C(Nc1ccc(N2CCNCC2)cc1)c1cccc(C(F)(F)F)c1Oc1ccc(F)cc1", "Unit Info": "×10⁻⁶ cm/s", "Numeric Value": 6.89}
{"Smiles Repr": "CC(C)(C)OC(=O)N1CCN(C(=O)c2cccc(C(F)(F)F)c2Oc2ccc(F)cc2)CC1", "Unit Info": "×10⁻⁶ cm/s", "Numeric Value": 1.82}

Query block: Please report the recorded Papp at 5 h, 200 µM for `O=C(Nc1cccc(N2CCNCC2)c1)c1cccc(C(F)(F)F)c1Oc1ccc(F)cc1` .
Result block: 7.03

* * *

Test system: P. aeruginosa NCTC 13437
Assay: MIC/MBC microbroth dilution (EUCAST)
Type: cell-based
Details: Pseudomonas aeruginosa, NCTC13437
Procedure: Minimum inhibitory concentrations (MIC values) were obtained using the microbroth dilution method as stated in the EUCAST guidelines. Tests were conducted on cation adjusted Mueller–Hinton broth (caMHB) or agar (caMHA). […] These were grown for 24 h at 37 °C, except for Micrococcus luteus where MICs took longer to grow and as a consequence were read after 48 h once a clear positive control could be observed. […] The last clear well, where there is no growth of bacteria, was counted as the MIC value. […]
Would you mind telling me the reported MIC of each entry?

These solved cases illustrate the format of a correct answer.
{"Smiles Repr": "O=C(Nc1ccc(N2CCNCC2)cc1)c1cccc([N+](=O)[O-])c1Oc1ccc(F)cc1", "Result": "> 256 µg/mL"}
{"Smiles Repr": "O=C(Nc1ccc(N2CCNCC2)cc1)c1cccc(F)c1Oc1ccc(F)cc1", "Result": "> 256 µg/mL"}
{"Smiles Repr": "O=C(Nc1cccc(N2CCNCC2)c1)c1cccc(C(F)(F)F)c1Oc1ccc(F)cc1", "Result": "256 µg/mL"}
{"Smiles Repr": "O=C(Nc1ccc(N2CCNCC2)cc1)c1cccc(C(F)(F)F)c1Oc1ccc(F)cc1", "Result": "> 256 µg/mL"}

Please give MIC for each item listed below.
1. O=C(Nc1ccc(N2CCNCC2)cc1)c1cccc(C(F)(F)F)c1Sc1ccc(F)cc1
2. O=C(Nc1ccc(N2CCNCC2)cc1)c1cccc(C(F)(F)F)c1Oc1ccccc1
3. O=C(c1cccc(C(F)(F)F)c1Oc1ccc(F)cc1)N1CCOCC1

Result block:
1: > 256 µg/mL; 2: > 256 µg/mL; 3: > 256 µg/mL

Please give MIC for each item listed below.
1. CN1CCN(C(=O)c2cccc(C(F)(F)F)c2Oc2ccc(F)cc2)CC1
2. O=C(Nc1ccc(N2CCNCC2)cc1)c1ccccc1Oc1ccccc1
3. O=C(c1cccc(C(F)(F)F)c1Oc1ccc(F)cc1)N1CCNCC1
4. Nc1cccc(C(=O)Nc2ccc(N3CCNCC3)cc2)c1Oc1ccc(F)cc1

Result block:
1. 256 µg/mL
2. > 256 µg/mL
3. > 256 µg/mL
4. > 256 µg/mL

Please give MIC for each item listed below.
1. O=C(Nc1ccc(N2CCNCC2)cc1)c1ccccc1Oc1ccc(F)cc1
2. O=C(Nc1ccccc1N1CCNCC1)c1cccc(C(F)(F)F)c1Sc1ccc(F)cc1

Result block:
1: > 256 µg/mL; 2: 256 µg/mL

Origin of values: paper PMC12298624
